# system-under-test: EGFR-mFc (Homo sapiens, UniProt P00533)
# experimental-details: SPR (BIACORE) binding kinetics, receptor-capture format
# details: 37° C., EGFR-mFc captured, NB=no binding
readout-label: ka (M⁻¹ s⁻¹)
Give just the number in M⁻¹ s⁻¹; leave the unit off.

Record request: ka value, item H1H1912N: human IgG1 Fc anti-EGFRvIII antibody with variable domains 1912; HCVR/LCVR SEQ ID NOs 66/74 (antibody, V domains shown, human IgG1 Fc) VH: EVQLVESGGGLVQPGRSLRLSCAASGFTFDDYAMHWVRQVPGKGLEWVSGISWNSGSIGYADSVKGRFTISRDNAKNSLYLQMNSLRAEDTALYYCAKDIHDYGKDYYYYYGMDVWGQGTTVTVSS VL: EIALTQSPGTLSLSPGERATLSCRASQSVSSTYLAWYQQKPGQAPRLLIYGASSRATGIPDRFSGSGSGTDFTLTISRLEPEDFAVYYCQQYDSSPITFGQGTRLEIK
39900
